study system: T1, human parathyroid hormone receptor 1 (hPTHR1) (human), Q03431
T1 chain: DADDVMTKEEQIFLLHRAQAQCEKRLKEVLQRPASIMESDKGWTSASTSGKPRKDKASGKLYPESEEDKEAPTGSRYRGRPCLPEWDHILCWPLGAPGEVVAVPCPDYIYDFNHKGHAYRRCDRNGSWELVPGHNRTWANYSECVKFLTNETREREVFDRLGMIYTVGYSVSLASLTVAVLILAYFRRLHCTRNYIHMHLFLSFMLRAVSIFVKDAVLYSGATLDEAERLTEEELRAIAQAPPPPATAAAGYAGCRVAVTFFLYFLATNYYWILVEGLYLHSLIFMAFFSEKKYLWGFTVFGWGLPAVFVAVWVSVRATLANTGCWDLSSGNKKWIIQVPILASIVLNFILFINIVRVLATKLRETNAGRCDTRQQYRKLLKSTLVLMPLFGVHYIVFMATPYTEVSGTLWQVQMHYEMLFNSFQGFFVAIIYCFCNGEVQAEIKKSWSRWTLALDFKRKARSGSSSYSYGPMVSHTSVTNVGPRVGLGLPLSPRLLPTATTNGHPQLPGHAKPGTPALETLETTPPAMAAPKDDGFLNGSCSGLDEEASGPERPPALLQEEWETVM
experiment notes: radioligand competition on GP-2.3 cells (hPTHR1), tracer 125I-PTH(1-34), n=4
pIC50: −log10 of the molar value.
readout name: pIC50

binder: IQLMHQRWKWIQDARRRAWLHKLIAEIHTAEI (modifications not checked) [dW12, W23-LA-PTH(5-36)-1949]
pIC50: 7.65

binder: FMHNLWKHLSSMERVEWLRKKLQDVHNY (modifications not checked) [dW12, Y34-bPTH(7-34)-1894]
pIC50: 7.54
